Target: UniProtKB P29275
Experiment: Displacement of [3H]MRS-1754 from human adenosine A2B receptor expressed in HEK293 cell membranes after 90 mins
Measurement Kind: IC50

Problem: Give the reported IC50 for this compound. "CCCn1c(Oc2ccc(F)c(F)c2)nc2nc(C3CCCC3)[nH]c2c1=O"
Solution: > 10 µM

* * *

Test: Protein binding in mouse plasma at 5 uM
Type: ADME, cell-free
Settings: read-out: PPB (converted)
Measurement Kind: fraction unbound at 5 µM
Respond with the number and no other words.

CCCn1c(-c2cccc(OC)c2)nc2nc(C3CCCC3)[nH]c2c1=O
0.05

Problem: Give the reported fraction unbound at 5 µM for this compound. "CCCn1c(Oc2ccc(F)c(F)c2)nc2nc(C3CCCC3)[nH]c2c1=O"
Solution: 0.01

* * *

Recorded Drug metabolism by entry
Test system: Liver
Test: Metabolic stability in human liver microsomes assessed as metabolic rate measured after 30 mins in presence of NADPH
Type: ADME, microsome
Conditions: 0.5 h

Here's what some known entries look like.
CCCn1c(Oc2cccnc2C)nc2nc(C3CCCC3)[nH]c2c1=O
0.06 nmol/min/mg
C[C@]12CC[C@H]3[C@@H](CCC4=CC(=O)CC[C@@]43C)[C@@H]1CC[C@@H]2O [TESTOSTERONE]
0.05 nmol/min/mg
CCCn1c(OC2CCC(O)C2)nc2nc(C3CCCC3)[nH]c2c1=O (stereo not given)
0.12 nmol/min/mg
CCCn1c(Oc2ccc(F)c(F)c2)nc2nc(C3CCCC3)[nH]c2c1=O
0.05 nmol/min/mg

Alright, here's another compound for you.
Problem: Find Drug metabolism for "CCCn1c(-c2cccc(OC)c2)nc2nc(C3CCCC3)[nH]c2c1=O" on Liver and write it down.
Solution: 0.03 nmol/min/mg

* * *

Biological target: Adenosine receptor A1 (Homo sapiens, UniProt P30542)
Sequence (P30542 whole entry): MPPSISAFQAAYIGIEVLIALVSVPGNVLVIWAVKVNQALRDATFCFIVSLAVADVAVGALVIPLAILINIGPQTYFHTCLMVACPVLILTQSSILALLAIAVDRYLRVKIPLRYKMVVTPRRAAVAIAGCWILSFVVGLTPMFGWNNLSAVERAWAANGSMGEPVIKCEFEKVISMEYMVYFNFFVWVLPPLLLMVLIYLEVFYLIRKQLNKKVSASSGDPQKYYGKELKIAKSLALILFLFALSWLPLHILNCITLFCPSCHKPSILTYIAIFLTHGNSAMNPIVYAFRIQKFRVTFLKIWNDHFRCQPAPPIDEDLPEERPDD
Assay: Antagonist activity at human adenosine A1 receptor expressed in HEK293 cells assessed as reduction in CPA-mediated inhibition of forskolin-stimulated cAMP level preincubated for 15 mins followed by CPA treatment for 15 mins and subsequent addition of forskolin measured after 30 mins by HTRF assay
Format: functional, cell-based
Measurement Kind: Ki (nM)
# value in nM; strip the unit string

Here's what some known entries look like.
CCCn1c(OC2CCCC2)nc2nc(C3CCCC3)[nH]c2c1=O
13
CCCn1c(-c2cccc(OC)c2)nc2nc(C3CCCC3)[nH]c2c1=O
15
CCCn1c(OC2CCOCC2)nc2nc(C3CCCC3)[nH]c2c1=O
12
CCCn1c(-c2cccc(C(F)(F)F)c2)nc2nc(C3CCCC3)[nH]c2c1=O
12
CCCn1c(OC2CCC(O)C2)nc2nc(C3CCCC3)[nH]c2c1=O (stereo unspecified)
9.6

Problem: Give the reported Ki for this compound. "CCCn1c(-c2cccc(O)c2)nc2nc(C3CCCC3)[nH]c2c1=O"
Solution: 0.2

* * *

Assay: Drug uptake in Wistar rat brain at 5 mg/kg, po via gavage measured at 1 hr post dose by LC-Ms/MS analysis
Format: ADME, organism-based
Details: read-out: Drug uptake
Recorded concentration at 1 h by entry

CCCn1c(-c2cccc(OC)c2)nc2nc(C3CCCC3)[nH]c2c1=O
10 ng/g

Problem: Give the reported concentration at 1 h for this compound. "CCCn1c(Oc2ccc(F)c(F)c2)nc2nc(C3CCCC3)[nH]c2c1=O"
Solution: 90 nM

* * *

Recorded solubility thermodynamic by entry
Experiment: Thermodynamic solubility of the compound in pH 7.4 solution
Assay type: physicochemical
Conditions: read-out: Therm_solubility
# value in µM; strip the unit string

Here's what some known entries look like.
CCCn1c(OC2CCC(O)C2)nc2nc(C3CCCC3)[nH]c2c1=O (centres undefined)
182
CCCn1c(-c2cccc(OC)c2)nc2nc(C3CCCC3)[nH]c2c1=O
54
CCCn1c(Oc2ccc(F)c(F)c2)nc2nc(C3CCCC3)[nH]c2c1=O
17

Alright, here's another compound for you.
Problem: Give the reported solubility thermodynamic for this compound. "CCCn1c(Oc2cccnc2C)nc2nc(C3CCCC3)[nH]c2c1=O"
Solution: 38

* * *

Test: Ratio of drug level in Wistar rat brain to plasma at 5 mg/kg, po via gavage measured at 4 hrs post dose by LC-Ms/MS analysis
Assay type: ADME, organism-based
Details: read-out: BPR
Measurement Kind: Kp at 4 h
Respond with the number and no other words.

Problem: Give the reported Kp at 4 h for this molecule. "CCCn1c(Oc2ccc(F)c(F)c2)nc2nc(C3CCCC3)[nH]c2c1=O"
Solution: 0.05

* * *

Assay: Plasma concentration in Wistar rat at 5 mg/kg, po via gavage measured at 1 hr post dose by LC-Ms/MS analysis
Format: ADME, organism-based
Recorded concentration at 1 h by entry
# value in nM; strip the unit string

CCCn1c(-c2cccc(OC)c2)nc2nc(C3CCCC3)[nH]c2c1=O
670

Alright, here's another compound for you.
Problem: Give the reported concentration at 1 h for this compound. "CCCn1c(Oc2ccc(F)c(F)c2)nc2nc(C3CCCC3)[nH]c2c1=O"
Solution: 1640

* * *

Assay: Thermodynamic solubility of the compound in pH 4 solution
Format: physicochemical
Settings: read-out: Therm_solubility
Measurement Kind: solubility thermodynamic (µM)
# value in µM; strip the unit string

Here's what some known entries look like.
CCCn1c(Oc2ccc(F)c(F)c2)nc2nc(C3CCCC3)[nH]c2c1=O
23
CCCn1c(OC2CCC(O)C2)nc2nc(C3CCCC3)[nH]c2c1=O (centres undefined)
276
CCCn1c(Oc2cccnc2C)nc2nc(C3CCCC3)[nH]c2c1=O
43

Problem: Give the reported solubility thermodynamic for this compound. "CCCn1c(-c2cccc(OC)c2)nc2nc(C3CCCC3)[nH]c2c1=O"
Solution: 63

* * *

Assay: Elimination half life in Wistar rat at 3 mg/kg, iv by LC-Ms/MS analysis
Type: ADME, organism-based
Settings: in vivo, read-out: beta t1/2 (converted)
Recorded half-life by entry
# value in min; strip the unit string

Here's what some known entries look like.
CCCn1c(Oc2cccnc2C)nc2nc(C3CCCC3)[nH]c2c1=O
30
CCCn1c(OC2CCC(O)C2)nc2nc(C3CCCC3)[nH]c2c1=O (centres undefined)
18
CCCn1c(Oc2ccc(F)c(F)c2)nc2nc(C3CCCC3)[nH]c2c1=O
124

Problem: Give the reported half-life for this compound. "CCCn1c(-c2cccc(OC)c2)nc2nc(C3CCCC3)[nH]c2c1=O"
Solution: 29.4

* * *

Biological target: CYP2D6 (Homo sapiens)
Sequence (P10635 whole entry): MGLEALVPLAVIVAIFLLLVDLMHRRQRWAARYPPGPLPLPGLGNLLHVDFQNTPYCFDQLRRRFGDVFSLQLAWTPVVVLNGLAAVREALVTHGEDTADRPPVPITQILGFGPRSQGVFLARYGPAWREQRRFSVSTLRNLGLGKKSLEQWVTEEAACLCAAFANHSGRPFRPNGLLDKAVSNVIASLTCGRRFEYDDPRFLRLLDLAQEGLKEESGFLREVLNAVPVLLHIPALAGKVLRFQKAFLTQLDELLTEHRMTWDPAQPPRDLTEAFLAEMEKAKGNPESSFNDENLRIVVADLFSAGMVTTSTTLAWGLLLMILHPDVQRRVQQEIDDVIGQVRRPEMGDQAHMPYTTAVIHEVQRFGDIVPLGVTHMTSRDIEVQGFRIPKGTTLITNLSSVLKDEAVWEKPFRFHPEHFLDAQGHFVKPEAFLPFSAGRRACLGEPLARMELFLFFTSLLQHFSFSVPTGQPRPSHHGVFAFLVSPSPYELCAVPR
Assay: Inhibition of CYP2D6 (unknown origin) at 5 uM relative to control
Format: ADME
Measurement Kind: inhibition at 5 µM (%)
# value in %; strip the unit string

Here's what some known entries look like.
CCCn1c(Oc2cccnc2C)nc2nc(C3CCCC3)[nH]c2c1=O
0
CCCn1c(-c2cccc(OC)c2)nc2nc(C3CCCC3)[nH]c2c1=O
1
CCCn1c(Oc2ccc(F)c(F)c2)nc2nc(C3CCCC3)[nH]c2c1=O
10

Problem: Give the reported inhibition at 5 µM for this compound. CCCn1c(OC2CCC(O)C2)nc2nc(C3CCCC3)[nH]c2c1=O (centres undefined)
Solution: 0

* * *

Biological target: Adenosine receptor A2b (Homo sapiens, UniProt P29275)
Sequence (P29275 whole entry): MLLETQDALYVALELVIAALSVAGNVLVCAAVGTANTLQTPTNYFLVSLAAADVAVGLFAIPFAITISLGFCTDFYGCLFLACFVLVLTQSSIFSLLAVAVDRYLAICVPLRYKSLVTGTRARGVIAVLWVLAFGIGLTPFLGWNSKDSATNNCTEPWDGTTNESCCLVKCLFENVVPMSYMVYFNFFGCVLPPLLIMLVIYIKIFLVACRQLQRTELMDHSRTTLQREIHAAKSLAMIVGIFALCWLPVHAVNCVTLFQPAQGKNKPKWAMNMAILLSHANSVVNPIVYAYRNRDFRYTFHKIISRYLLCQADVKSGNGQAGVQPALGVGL
Assay: Displacement of [3H]MRS-1754 from human adenosine A2B receptor expressed in HEK293 cell membranes after 90 mins
Measurement Kind: Ki (µM)
# value in µM; strip the unit string

Problem: Give the reported Ki for this compound. "CCCn1c(-c2cccc(OC)c2)nc2nc(C3CCCC3)[nH]c2c1=O"
Solution: 1.1

* * *

Recorded inhibition at 5 µM by entry
Biological target: CYP1A2 (Homo sapiens)
Sequence (P05177 whole entry): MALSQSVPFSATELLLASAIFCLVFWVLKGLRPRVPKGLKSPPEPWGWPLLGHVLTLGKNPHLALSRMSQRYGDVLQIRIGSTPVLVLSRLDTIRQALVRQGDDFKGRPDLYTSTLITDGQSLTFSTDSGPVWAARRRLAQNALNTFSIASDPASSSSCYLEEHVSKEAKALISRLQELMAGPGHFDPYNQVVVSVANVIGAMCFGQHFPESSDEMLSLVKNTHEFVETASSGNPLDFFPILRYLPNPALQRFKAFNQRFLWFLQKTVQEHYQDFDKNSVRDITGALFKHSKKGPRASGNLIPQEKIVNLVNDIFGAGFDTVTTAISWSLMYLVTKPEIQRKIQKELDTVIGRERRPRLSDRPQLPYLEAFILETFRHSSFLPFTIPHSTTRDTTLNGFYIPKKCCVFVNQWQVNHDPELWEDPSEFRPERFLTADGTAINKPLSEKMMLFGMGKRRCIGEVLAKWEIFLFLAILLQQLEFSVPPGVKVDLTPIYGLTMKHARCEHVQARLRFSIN
Experiment: Inhibition of CYP1A2 (unknown origin) at 5 uM relative to control
Assay type: ADME
# value in %; strip the unit string

Here's what some known entries look like.
CCCn1c(OC2CCC(O)C2)nc2nc(C3CCCC3)[nH]c2c1=O (centres undefined)
5
CCCn1c(Oc2cccnc2C)nc2nc(C3CCCC3)[nH]c2c1=O
0
CCCn1c(-c2cccc(OC)c2)nc2nc(C3CCCC3)[nH]c2c1=O
0

Alright, here's another molecule for you.
Problem: Find inhibition at 5 µM for "CCCn1c(Oc2ccc(F)c(F)c2)nc2nc(C3CCCC3)[nH]c2c1=O" on CYP1A2 (Homo sapiens) and write it down.
Solution: 7
